assay-explanation: qHTS Validation assay for Inhibitors of Plasmodium falciparum Dd2 growth in vitro; note: nearly all actives have a fitted effect of over 70% in size
experimental-parameters: P. falciparum Dd2 in RBCs, SYBR Green growth, 72 h; series mostly up to 28.7 µM
Hit rate of the full screen: of about 4,100 compounds, about 1,600 (39%) were called active. About 25% were inconclusive and are not listed. Calls come from the whole dose curve; as a rule, active = well fitted inhibition curve with a large enough effect; inconclusive = small, poorly fitted or top-dose-only effect; inactive = no such curve, though single readings can be large or run the other way. The list shows a part of the results.
Answer with one of the outcomes true (active), false (inactive)

Previously resolved entries follow.
# compound, category
records = [
    ("CC(C(=O)N1CCCC1)N1CCN(S(=O)(=O)c2ccc(C(C)(C)C)cc2)CC1 (stereo not given)", "true"),
    ("COc1ccc(Oc2c(C(F)(F)F)oc3c(CN4CCCC(C)C4)c(O)ccc3c2=O)cc1 (stereo not given)", "true"),
    ("CCC(=O)C1=C(c2ccc(OC)c(OC)c2)N(C(=O)CC)n2c(CC)nnc2S1", "true"),
    ("CCN(C(=O)c1cc2cc(Br)cc(OC)c2oc1=O)c1ccccc1", "false"),
    ("COc1ccc(C(O)(CCC(C)C)C(CN2CCOCC2)c2ccc(Cl)cc2)cc1 (stereo not given)", "true"),
]

Query: Dear all, I need the recorded test outcome for COc1ccc(-c2ccccc2NC(=O)C2CCCN(Cc3c(O)cccc3OC)C2)cc1 (stereo not given) , thank you.
Reply: true

* * *

assay-explanation: qHTS Validation assay for Inhibitors of Plasmodium falciparum Dd2 growth in vitro; note: nearly all actives have a fitted effect of over 70% in size
experimental-parameters: P. falciparum Dd2 in RBCs, SYBR Green growth, 72 h; series mostly up to 28.7 µM
About 1,600 (39%) of roughly 4,100 compounds were called active. Another 25% or so got no clear call; they are omitted. Calls come from the whole dose curve; as a rule, active = well fitted inhibition curve with a large enough effect; inconclusive = small, poorly fitted or top-dose-only effect; inactive = no such curve, though single readings can be large or run the other way. Some of the results follow.
Answer with one of the outcomes TRUE (active), FALSE (inactive)

Previously resolved entries follow.
# compound, category
rows = [
    ("COc1cccc(CN2CCC3(C2)NC(=O)c2ccccc2CO3)c1 (stereo unspecified)", "FALSE"),
    ("O=C1NCCCCCCN(C(=O)c2cnccn2)[C@H]2CCCC[C@@H]12", "FALSE"),
    ("COc1cccc(CN2C(=O)OC3(CCN(Cc4ccccc4OC)CC3)C2(C)c2cccnc2)c1 (stereo unspecified)", "TRUE"),
    ("O=C(c1ccc(OC2CCN(Cc3c[nH]c4ccccc34)CC2)cc1)N1CCCCC1", "TRUE"),
    ("CCc1ccc(CN(Cc2ccco2)C(=O)c2cc(-c3ccc(Cl)cc3)on2)cc1", "FALSE"),
]

Query: Dear all, I need the recorded test outcome for O=C(c1ccc(-c2ncc3cnc(-c4ccccc4)cn23)cc1)N1CCc2cccnc21 , thank you.
Reply: TRUE

Query: Dear all, I need the recorded test outcome for Cc1nn(-c2ccccc2)c2c1C(O)n1c(nc3ccccc31)S2 (stereo unspecified) , thank you.
Reply: TRUE

Query: Dear all, I need the recorded test outcome for COC(=O)c1cc(C(=O)c2ccc(Cl)cc2Cl)cn1C , thank you.
Reply: TRUE

Query: Dear all, I need the recorded test outcome for O=C(Cc1c[nH]c2ccccc12)N1CCc2c(nc(-c3ccc(F)cc3)[nH]c2=O)C1 , thank you.
Reply: FALSE

Query: Dear all, I need the recorded test outcome for COc1cccc(CN2C(=O)OC3(CCN(Cc4ccc5c(c4)CCO5)CC3)C2(C)c2cccnc2)c1 (stereo unspecified) , thank you.
Reply: TRUE

Query: Dear all, I need the recorded test outcome for O=C(c1ccc(-c2ncc3cnc(-c4cccc(F)c4)cn23)cc1)N1CCc2cccnc21 , thank you.
Reply: FALSE

Query: Dear all, I need the recorded test outcome for CC(C)CN(CCNC(=O)c1cc(-c2ccc(Cl)s2)nc2ccccc12)CC(C)C , thank you.
Reply: TRUE

Query: Dear all, I need the recorded test outcome for COc1cc2c(cc1OC)CN(C(=O)c1cccs1)CC2 , thank you.
Reply: FALSE

Query: Dear all, I need the recorded test outcome for Cc1ccccc1NC(=O)c1c(NC(=O)c2ccco2)sc2c1CCC(C(C)(C)C)C2 (stereo unspecified) , thank you.
Reply: TRUE

Query: Dear all, I need the recorded test outcome for Cc1ccc(C(=O)N2CCCn3cc(-c4cccc(C#N)c4)nc32)cc1 , thank you.
Reply: FALSE

Query: Dear all, I need the recorded test outcome for O=C1CO[C@H]2CCN(Cc3ccc(O)cc3)CC[C@@H]2N1c1ccccc1 , thank you.
Reply: FALSE

Query: Dear all, I need the recorded test outcome for Cc1ccc(OC2(C(=O)NC(C)c3nn[nH]n3)CCNCC2)cc1 (stereo unspecified) , thank you.
Reply: FALSE

Query: Dear all, I need the recorded test outcome for CC1(c2ccccc2)N(Cc2ccc(O)cc2)C(=O)OC12CCN(Cc1c[nH]c3ccccc13)CC2 (stereo unspecified) , thank you.
Reply: TRUE

Query: Dear all, I need the recorded test outcome for Cc1ccc(NC(=O)c2c(NC(=O)c3ccco3)sc3c2CCC(C(C)(C)C)C3)c(C)c1 (stereo unspecified) , thank you.
Reply: FALSE

Query: Dear all, I need the recorded test outcome for Cc1cc(C(=O)Nc2cc(C)n(Cc3ccc(Cl)cc3)n2)no1 , thank you.
Reply: FALSE

Query: Dear all, I need the recorded test outcome for Cc1ccc(C)c(OC(=O)CSc2nnc(-c3cccs3)o2)c1 , thank you.
Reply: FALSE

* * *

assay-explanation: qHTS Validation assay for Inhibitors of Plasmodium falciparum Dd2 growth in vitro; note: nearly all actives have a fitted effect of over 70% in size
experimental-parameters: P. falciparum Dd2 in RBCs, SYBR Green growth, 72 h; series mostly up to 28.7 µM
Among all 4,100 compounds or so, about 1,600 (39%) were called active. Another 25% or so got no clear call; they are omitted. Calls come from the whole dose curve; as a rule, active = well fitted inhibition curve with a large enough effect; inconclusive = small, poorly fitted or top-dose-only effect; inactive = no such curve, though single readings can be large or run the other way. This is one part of the list.
Answer with one of the outcomes t = active, f = inactive

Previously resolved entries follow.
# compound, category
data = [
    ("COc1ccc(O)c(-c2cc(-c3cccs3)[nH]n2)c1", "f"),
    ("CSc1nnc(-c2cc3ccccc3cc2O)n1C", "t"),
    ("C=C(C)COc1ccc(-c2[nH]ncc2Oc2ccccc2OCC)c(O)c1", "t"),
    ("Cc1cccc(-c2nnc(SCC(=O)NC3CC3)n2C)c1", "f"),
    ("COc1ccccc1Cn1cc(C(=O)c2ccc(C)cc2)c(=O)c2cc(C)ccc21", "f"),
    ("COc1ccc(-c2ncc3c(n2)OCCN(Cc2ccccc2)C3=O)cc1", "f"),
    ("Cc1ccc(/C=N/NC(=O)c2cc3ccccc3cc2O)o1", "t"),
    ("O=C(Nc1ccc(C2=NCCN2)cc1)c1ccc(C(=O)Nc2ccc(C3=NCCN3)cc2)c(Cl)c1", "t"),
    ("Clc1ccc(NNc2ccnc3cc(Cl)ccc23)cc1", "t"),
    ("O=C(CSc1ncn[nH]1)Nc1ccnc2ccccc12", "f"),
]

Query: Dear all, I need the recorded test outcome for c1ccc(CNc2nc(-c3ccccn3)nc3ccccc23)cc1 , thank you.
Reply: t

Query: Dear all, I need the recorded test outcome for COC(=O)COc1ccc(-c2nccc(-c3ccccn3)n2)cc1 , thank you.
Reply: f

Query: Dear all, I need the recorded test outcome for COc1cc(O)c(C(CCN2CCCCC2)c2cc(OC)c(OC)c(OC)c2)c(OC)c1 (stereo not drawn) , thank you.
Reply: t

Query: Dear all, I need the recorded test outcome for O=C(N/N=C/c1ccccn1)c1ccccc1 , thank you.
Reply: f

* * *

assay-explanation: qHTS Validation assay for Inhibitors of Plasmodium falciparum Dd2 growth in vitro; note: nearly all actives have a fitted effect of over 70% in size
experimental-parameters: P. falciparum Dd2 in RBCs, SYBR Green growth, 72 h; series mostly up to 28.7 µM
Out of some 4,100 compounds screened, about 1,600 (39%) were called active. About 25% were inconclusive and are not listed. Calls follow the shape of the dose curve; as a rule, active = well fitted inhibition curve with a large enough effect; inconclusive = small, poorly fitted or top-dose-only effect; inactive = no such curve, though single readings can be large or run the other way. The list shows a part of the results.
Answer with one of the outcomes true (1) for active, false (0) for inactive

Previously resolved entries follow.
# structure-smiles, category
rows = [
    ("COc1cccc(NC(=O)CSc2nc(=O)[nH]c3c2CCCC3)c1", "false (0)"),
    ("COc1cccc(NC(=O)c2cccc3c(=O)c4c([nH]c23)CCCC4)c1", "true (1)"),
    ("COCCOc1cc(=O)n2c(c1C(=O)NCc1ccc(OC)cc1)CCOCC2", "false (0)"),
    ("Cc1ccsc1C(=O)Nc1cccc(-c2nnc3n2CCCC3)c1", "false (0)"),
]

Turning now to a further compound:
Query: Dear all, I need the recorded test outcome for COc1cccc(NC(=O)N[C@H]2[C@H](O)[C@@H](Oc3ccccc3)[C@@H]3OC[C@H]2O3)c1 , thank you.
Reply: false (0)

* * *

assay-explanation: qHTS Validation assay for Inhibitors of Plasmodium falciparum Dd2 growth in vitro; note: nearly all actives have a fitted effect of over 70% in size; note: potency is the fitted concentration of half-maximal effect
experimental-parameters: P. falciparum Dd2 in RBCs, SYBR Green growth, 72 h; series mostly up to 28.7 µM
The campaign covered roughly 4,100 compounds. About 1,600 (39%) were called active. Another 25% or so got no clear call; they are omitted. The list shows a part of the results.
measurement-label: Potency

# compound, value-measured
rows = [
    ("CCc1nnc([C@@H]2CC(F)(F)CN2Cc2cccn2C)o1", "inactive"),
    ("Fc1ccc(-c2csc3ncnc(Cl)c23)cc1", "3.35 µM (active)"),
    ("CCCCC(CC)CNC(=O)CCCCCn1c(=O)[nH]c2ccsc2c1=O (stereo unspecified)", "inactive"),
    ("Cc1cc2nc(/C=C/c3nc4cc(C)c(C)cc4[nH]3)[nH]c2cc1C", "inactive"),
]

Given item CC(=O)Nc1ccc(NC(=O)Cn2ccn3nc4c(c3c2=O)CCCCC4)cc1 , the value recorded as its Potency is inactive

Given item COc1ccc(-c2csc3ncnc(Cl)c23)cc1 , the value recorded as its Potency is 4.22 µM (active)
